List of IC50 tested on Lysine-specific histone demethylase 1A (Homo sapiens).

Query: Entry NC1CC1c1cc(F)ccc1-c1ccccc1 (centres undefined) has what IC50?
Reply: > 50 µM

Query: Follow-up entry: NC1CC1c1ccc(OCc2ccccc2)cc1OCc1ccccc1 (centres undefined)
Reply: > 30 µM

Query: Follow-up entry: CC(C)COc1ccc(C2CC2N)c(OCC(C)C)c1 (centres undefined)
Reply: > 30 µM

Query: Follow-up entry: CC(C)COc1ccc(Cl)cc1C1CC1N (centres undefined)
Reply: 14.9 µM

Query: Follow-up entry: CC(C)COc1c(Cl)cc(Cl)cc1C1CC1N (centres undefined)
Reply: > 50 µM

Query: Follow-up entry: COc1cccc(COc2c(F)cc(F)cc2C2CC2N)c1 (centres undefined)
Reply: > 30 µM

Query: Follow-up entry: NC1CC1c1cc(Cl)ccc1OCc1ccccc1 (centres undefined)
Reply: > 30 µM

Query: Follow-up entry: NC1CC1c1ccc(OCC2CCCCC2)cc1OCC1CCCCC1 (centres undefined)
Reply: > 30 µM

Query: Follow-up entry: NCc1cccc(COc2c(F)cc(F)cc2C2CC2N)c1 (centres undefined)
Reply: 4.1 µM
